target: pooled human IgG (human IgG1, 2, 3 and 4)
attribute measured: Enzyme Activity Endpoint Assay (purified): Fc (ng/µL)
Return type: number; implicit unit ng/µL.

Known results for proteins:
protein	experimental result
PRT-623 (protein) MQITTVWTKGVTPLTPEQFRYNNEDVIHAPYLAHQGWYDITKAFDGKDNLLCGAATAGNMLHWWFDQNKTEIEAYLSKHPEKQKIIFNNQELFDLKAAIDTKDSQTNSQLFNYFRDKAFPNLSARQLGVMPDLVLDMFINGYYLNVFKTQSTDVNRPYQDKDKRGGIFDAVFTRGDQTTLLTARHDLKNGTLNEISQIIKQELQSGRALALSHTYANVSISHVINLWGADFNAEGNLIAIYVTDSDANASIGMKKYFVGINAHGHVAISAKKIEGENIGAQVLGLFTLSSGKDIWQKLSLEHHHHHH	260
PRT-436 (protein) MSQTEDSESLQRLRDIEDFQAEKKDQNVVYTKWLDGVDVKDHDFRKIVDGNIAYYATPLLNGRGFYDINKDFNRDSDKCAAAVAANMFHYWLDRNRDNVDRFLRQNPEKHGIIELPDGQLKLSDFLNTYESDDGYRDKSKLFDFISNNFNGPVWTDKLLDNYINGYAYNYKYGRTIEDPTKNTSKINFFKEVFNEKILTNNHSIRNQNEFSVLLSEALYTGKAIGLSYGPAGLRHSLGHIISVWGADLDADGNVVAIYVTDSDDKKLTIGDERVGLKRYKISTDDEGRLRLTAYEETHNTGGQIRGLWTLDTGKQAWADYFDKTEQTGTDQAEQ	305
PRT-658 (protein) MQITSVWTKGVTPLTPEQFRYNNEDVIHAPYLAHQGWYDITKAFDGKDNLLCGAATAGNMLHWWFDQNKTEIEAYLSKHPEKQKIIFNNQELFDLRKAINTKDSQTNSALFNYFRDKAFPNLSARQLGVMPDLVLDMFINGYYLNVFKTQSTDVNRPYQDKDKRGGIFDAVFTRGDQTTLLTARHDLKNKGLNDISTIIKQELTEGRALALSHTYANVSISHVINLWGADFNAEGNLEAIYVTDSDANASIGMKKYFVGINAHGHVAISAKKIEGENIGAQVLGLFTLSSGKDIWQKLSLEHHHHHH	473

The protein PRT-405 (protein) MVTSVWTKGVTPPADFTQGEDVFHAPYVANQGWYDITKTFNGKDDLLCGAATAGNMLHWWFDQNKEYIEAYLKKHPEKQKIMFGDQELLDVRKAINTKGSQKNSELFNYFRDKAFPNLSARRLGVMPDLVLDMFINGYYLNVTKTQTTDVNRTYQEKDKRGGIFDAVFTRGDQSKLLTSRHDFKEKGLKEISDLIKQELTEGKALGLSHTYANVRINHVINLWGADFDSDGNLKAIYVTDSDSNASIGMKKYGVGVNSAGKVAISAKEIKEDNIGAQVLGLFTLSTGQDIWNQTN showed Enzyme Activity Endpoint Assay (purified): Fc equal to 218

The protein PRT-412 (protein) MVTSVWTKGVTPPADFTQGEDVFHAPYVANQGWYDITKTFNGKDDLLCGAATAGNMLHWWFDQNKEYIEAYLKKHPEKQKIMFGDQELLDVRKAINTKGSQKNSELFNYFRDKAFPNLSARRLGVMPDLVLDMFINGYYLNVTKTQTTDVNRTYQEKDKRGGIFDAVFTRGDQSKLLTSRHDFKEKGLKEISDLIKQELTEGKALGLSHTYANVRINHVINLWGADFDSDGNLKAIYVTDSDSNASIGMKKYFVGVNAAGKVAISAKEIKEDNIGAQVLGLFTLSTGQDIWNQTN showed Enzyme Activity Endpoint Assay (purified): Fc equal to 103

The protein PRT-687 (protein) MQITSVWTKGVTPLTPEQFRYNNEDVIHAPYKPHQGWYDITKTFNGKDNLLCGAATAGNMLHWWFDQNKTEIEAYLKKYPEKQKIIFNNQKLFDLRKAINTKDSQTNSALFNYFRDKAFPNLSARQLGVMPDLVLDMFINGYYLNVFKTQSTDVNRPYQTRDKRGGIFDHVFGRGDQTTLLTARHDLKNKTLNEISQIIKQELSEGKALALSHTYANVSISHVINLWGADFNAEGNLEAIYVTDSDANAKIGMKKYYVGKNAHGKVAISAKKIEGENIGAQVLGLFTLSSGKDIWQKLSLEHHHHHH showed Enzyme Activity Endpoint Assay (purified): Fc equal to 420

The protein PRT-497 (protein) MVTSVWTKGVTPPTDFRKIVDGNIAYYHAPYKAGQGWYDITKTFNGKDDLLCGAATAGNMLHWWFDQNKEYIEAYLKKHPEKQKIMFGDQELLDVRKAINTKGSQKNSELFNYFRDKAFPNLSARRLGVMPDLVLDMFINGYYLNVTKTQTTDVNRTYQEKDKRGGIFDAVFTRGDQSKLLTSRHDFKEKGLKEISDLIKQELTEGKALGLSHTYANVRINHVINLWGADFDSDGNLKAIYVTDSDSNASIGMKKYFVGVNSAGKVAISAKEIKEDNIGAQVLGLFTLSTGQDIWNQTNLEHHHHHH showed Enzyme Activity Endpoint Assay (purified): Fc equal to 0

The protein PRT-440 (protein) MSQTEDSESLQRLRDIEDFQAEKKKQNVVYTKWLDGVDVKDHDFRKIVDGNIAYYATPLLNGRGFYDINKDFNRDSDKCAAAVAANMFHYWLDRNRDNVDRFLRQNPEKHGIIELPDGQLKLSDFLNTYESDDGYRDKSKLFDFISNNFNGPVWTDKLLDNYINGYAYNYKYGRTIEDPTKNTSKINFFKEVFNEKILTNNHSIRNQNELSVLLSEALYTGKAIGLSYGPAGLRHSLGHIISVWGADLDADGNVVAIYVTDSDDKKLTIGDERVGLKRYKISTDDEGRLRLTAYEETHNTGGQIRGLWTLDTGKQAWADYFDKTEQTGTDQAEQ showed Enzyme Activity Endpoint Assay (purified): Fc equal to 328

From: patent US20250027068
